The measurements presented in this section are drawn from patent US20240317758A1.

Below, each entry is listed alongside its reported IC50.
Target: full-length recombinant human NEK7 (Homo sapiens, UniProt Q8TDX7)
Construct: full-length recombinant human NEK7; GST (N)
Sequence (Q8TDX7 whole entry): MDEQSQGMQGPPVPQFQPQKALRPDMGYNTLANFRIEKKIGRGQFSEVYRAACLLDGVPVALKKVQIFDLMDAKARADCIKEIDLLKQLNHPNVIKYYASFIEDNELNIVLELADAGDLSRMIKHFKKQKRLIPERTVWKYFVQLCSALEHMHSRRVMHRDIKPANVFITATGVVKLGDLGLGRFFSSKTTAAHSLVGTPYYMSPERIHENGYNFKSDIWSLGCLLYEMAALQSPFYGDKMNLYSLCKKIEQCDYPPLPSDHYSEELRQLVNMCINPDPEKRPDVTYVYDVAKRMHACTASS
Experiment: NEK7 enzymatic assay
Conditions: recombinant human NEK7, casein substrate, radiolabelled ATP

Nc1ncnc2c1c(-c1ccc(NC(=O)Nc3ccc(CN4CCOCC4)c(F)c3)c(F)c1)cn2C1CC1 [Example I-2]; > 2000 nM
CN1CCN(Cc2ccc(NC(=O)Nc3ccc(-c4nn(C5CC5)c5ccnc(N)c45)cc3F)cc2C(F)(F)F)CC1 [Example I-31]; < 100 nM
CN1CCN(Cc2ccc(NC(=O)Nc3ccc(-c4cn(C5CC5)c5ncnc(N)c45)cn3)cc2C(F)(F)F)CC1 [Example I-14]; < 100 nM

QUERY: State, for full-length recombinant human NEK7 (Homo sapiens, UniProt Q8TDX7), measured IC50 of the compound listed here: CN1CCN(C2CC(F)(F)c3cc(NC(=O)Nc4ccc(-c5nn(C6CC6)c6ncnc(N)c56)cc4F)ccc32)CC1 (stereo not shown) [Example I-94]
RESULT: < 100 nM

QUERY: Given CC1CN(C)CCN1Cc1ccc(NC(=O)Nc2ccc(-c3cn(C4CC4)c4ncnc(N)c34)cc2F)cc1C(F)(F)F (stereo not shown) [Example I-70] , report its IC50 on full-length recombinant human NEK7 (Homo sapiens, UniProt Q8TDX7).
RESULT: 100 to 500 nM

QUERY: Give IC50 only, for Nc1ncnc2c1c(-c1ccc(NC(=O)Nc3ccc(CN4CCN(CCF)CC4)c(C(F)(F)F)c3)c(F)c1)cn2C1CC1 [Example I-84] , using full-length recombinant human NEK7 (Homo sapiens, UniProt Q8TDX7) data.
RESULT: < 100 nM

QUERY: Report IC50 on full-length recombinant human NEK7 (Homo sapiens, UniProt Q8TDX7) for this entry: CC(C)N1CCN(Cc2ccc(NC(=O)Nc3ccc(-c4cn(C5CC5)c5ncnc(N)c45)cc3F)cc2C(F)(F)F)CC1 [Example I-63]
RESULT: < 100 nM

---

Molecular target: full-length recombinant human NEK7 (Homo sapiens)
Construct: full-length recombinant human NEK7; GST (N)
Assay: NEK7 enzymatic assay
Details: recombinant human NEK7, casein substrate, radiolabelled ATP
pIC50: −log10 of the molar value.
Value kind: pIC50

Some solved cases for reference:
CN1C[C@@H]2CN(Cc3ccc(NC(=O)Nc4ccc(-c5cn(C6CC6)c6ncnc(N)c56)cc4F)cc3C(F)(F)F)C[C@@H]2C1; 6.30 to 7.00
CN1CCN(C(=O)c2ccc(NC(=O)Nc3ccc(-c4cn(C5CC5)c5ncnc(N)c45)cc3F)cc2C(F)(F)F)CC1; 6.30 to 7.00
CC(C)n1cc(-c2ccc(NC(=O)Nc3ccc(CN4CCN(C)CC4)c(C(F)(F)F)c3)c(F)c2)c2c(N)ncnc21; > 7.00

QUERY: Give the value of pIC50 reported for the following: `Cc1cc(NC(=O)Nc2ccc(-c3cn(C4CC4)c4ncnc(N)c34)cc2F)ccc1CN1CCN(C)CC1`
RESULT: < 5.70

QUERY: Please report pIC50 for the following compound: `Nc1ncnc2c1c(-c1ccc(NC(=O)Nc3ccc(CN4CCC(F)(F)CC4)c(C(F)(F)F)c3)c(F)c1)cn2C1CC1`
RESULT: < 5.70

QUERY: Assign pIC50 to the following record: `CN1CCN(Cc2ccc(NC(=O)Nc3ccc(-c4cn(CCC(=O)O)c5ncnc(N)c45)cc3F)cc2C(F)(F)F)CC1`
RESULT: > 7.00

QUERY: Report pIC50, nothing else, for this compound: `CN1CCN(C(=O)c2ccc(NC(=O)Nc3ccc(-c4nn(C5CC5)c5ncnc(N)c45)cc3F)cc2C(F)(F)F)CC1`
RESULT: 6.30 to 7.00
